- EXPERIMENTAL DETAILS: Microsomal clearance assay (M)
- CONDITIONS: intrinsic clearance in rat liver microsomes
MEASURED ENDPOINT: Assay M RLM CI(int)
Respond with the figure and its unit, in that order.

Some entries whose results are on file:
Cc1ccc(S(=O)(=O)NC[C@H]2C[C@@H](O)C2)cc1-c1cnc(N)c(-c2cc(C3CC3)no2)n1 = 95 µL/min/mg
Cc1ccc(S(=O)(=O)NCC(C)(C)CO)cc1-c1cnc(N)c(-n2cncn2)n1 = 64 µL/min/mg
Cc1ccc(S(=O)(=O)NOC2CCOC2)cc1-c1cnc(N)c(-n2cncn2)n1 (stereo not drawn) = 40 µL/min/mg
CCn1cc(-c2nc(-c3cc(S(=O)(=O)NCC(C)(C)O)ccc3C)cnc2N)nn1 = 45 µL/min/mg
Cc1ccc(S(=O)(=O)NCC(C)(C)O)cc1-c1cnc(N)c(-c2cnn(C)c2)n1 = 49 µL/min/mg
Cc1cn(-c2nc(-c3cc(S(=O)(=O)NCCCO)ccc3C)cnc2N)cn1 = 17 µL/min/mg
Cc1ccc(S(=O)(=O)N[C@H]2CC[C@](C)(O)CC2)cc1-c1cnc(N)c(-n2cncn2)n1 [Example 69a] = 49 µL/min/mg
Cc1ccc(S(=O)(=O)N2CCC(F)C2)cc1-c1cnc(N)c(-n2cncn2)n1 (stereo not drawn) = 375 µL/min/mg

Provide Assay M RLM CI(int) values for the following items, in order.
1. Cc1ncc(-c2nc(-c3cc(S(=O)(=O)NCC4(CO)CCOCC4)ccc3C)cnc2N)s1
2. Cc1ncc(-c2nc(-c3cc(S(=O)(=O)N[C@H]4C[C@@H](O)C4)ccc3C)cnc2N)s1 [Example 43a]
3. Cc1ccc(S(=O)(=O)NOC(C)C)cc1-c1cnc(N)c(-n2cncn2)n1
4. Cc1ccc(S(=O)(=O)NC2CCC(CO)CC2)cc1-c1cnc(N)c(-n2cncn2)n1 (stereo not drawn)
5. Cc1ccc(S(=O)(=O)NCCC(C)(C)O)cc1-c1cnc(N)c(-c2ccc(C3CC3)s2)n1
6. Cc1ncc(-c2nc(-c3cc(S(=O)(=O)NC[C@H]4CCCO4)ccc3C)cnc2N)s1 (single isomer, unassigned) [Example 45.6a]
7. Cc1ccc(S(=O)(=O)N[C@H]2CC[C@H](O)CC2)cc1-c1cnc(N)c(-c2nc(C3CC3)no2)n1

1. 83 µL/min/mg
2. 63 µL/min/mg
3. 123 µL/min/mg
4. 20 µL/min/mg
5. 122 µL/min/mg
6. 228 µL/min/mg
7. 43 µL/min/mg

Provide Assay M RLM CI(int) values for the following items, in order.
1. Cc1nc(C)c(-c2nc(-c3cc(S(=O)(=O)NCC(C)(C)O)ccc3C)cnc2N)s1
2. Cc1ccc(S(=O)(=O)NCCC(C)(C)O)cc1-c1cnc(N)c(-c2cnn(Cc3ccncc3)c2)n1
3. Cc1ccc(S(=O)(=O)NCCC(C)(C)O)cc1-c1cnc(N)c(-c2cnn(Cc3ccccn3)c2)n1

16 µL/min/mg
203 µL/min/mg
78 µL/min/mg

----------
Would you mind telling me the reported IC50 of each entry?
- SUBJECT OF TEST: PI 4-kinase beta (Homo sapiens)
- Sequence (Q9UBF8 whole entry): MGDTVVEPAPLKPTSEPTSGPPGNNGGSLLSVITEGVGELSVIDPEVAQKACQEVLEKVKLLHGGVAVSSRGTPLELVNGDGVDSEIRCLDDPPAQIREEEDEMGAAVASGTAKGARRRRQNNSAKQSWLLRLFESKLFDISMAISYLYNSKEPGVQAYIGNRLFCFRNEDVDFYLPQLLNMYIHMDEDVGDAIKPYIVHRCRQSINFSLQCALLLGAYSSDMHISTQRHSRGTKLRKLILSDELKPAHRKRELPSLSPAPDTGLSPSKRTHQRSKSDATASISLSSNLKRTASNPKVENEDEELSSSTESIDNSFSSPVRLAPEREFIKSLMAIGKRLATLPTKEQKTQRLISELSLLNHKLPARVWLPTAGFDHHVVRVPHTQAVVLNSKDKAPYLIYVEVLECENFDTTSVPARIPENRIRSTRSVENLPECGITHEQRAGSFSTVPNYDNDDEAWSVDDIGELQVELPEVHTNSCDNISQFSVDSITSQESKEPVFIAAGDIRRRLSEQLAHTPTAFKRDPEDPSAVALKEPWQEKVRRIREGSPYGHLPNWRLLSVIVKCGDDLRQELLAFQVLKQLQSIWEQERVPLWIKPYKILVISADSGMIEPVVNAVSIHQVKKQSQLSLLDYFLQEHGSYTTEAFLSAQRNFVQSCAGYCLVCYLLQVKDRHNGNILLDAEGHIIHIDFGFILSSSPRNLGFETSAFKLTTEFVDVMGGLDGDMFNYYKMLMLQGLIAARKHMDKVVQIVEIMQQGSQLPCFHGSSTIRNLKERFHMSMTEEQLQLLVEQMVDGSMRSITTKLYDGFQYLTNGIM
- EXPERIMENTAL DETAILS: Kinase Glo Luminescent Kinase Assay (Kglo), assay D
- Type: biochemical
- CONDITIONS: read-out: Assay D PI4Kβ IC50

Provide IC50 values for the following items, in order.
1. Cc1nc(C)c(-c2nc(-c3cc(S(=O)(=O)NCC(C)(C)O)ccc3C)cnc2N)s1
2. Cc1noc(-c2nc(-c3cc(S(=O)(=O)NCC(C)(C)CO)ccc3C)cnc2N)n1
3. Cc1ccc(S(=O)(=O)NC2CC3(CC(O)C3)C2)cc1-c1cnc(N)c(-n2cncn2)n1 (single isomer, unassigned) [Example 70a]
4. CCN1CCC[C@H]1CNS(=O)(=O)c1ccc(C)c(-c2cnc(N)c(-c3cn(C)nc3C)n2)c1
5. CCc1noc(-c2nc(-c3cc(S(=O)(=O)N4CCC(CO)CC4)ccc3C)cnc2N)n1
6. Cc1ccc(S(=O)(=O)NCCC(C)(C)O)cc1-c1cnc(N)c(-c2ccc(N3CCCCC3)nc2)n1
7. Cc1ccc(S(=O)(=O)N2CC(F)C2)cc1-c1cnc(N)c(-n2cncn2)n1
8. Cc1ccc(S(=O)(=O)NCCC(C)(C)O)cc1-c1cnc(N)c(-c2cnn(C)c2C)n1

1: > 10 µM; 2: > 9.1 µM; 3: 4.6 µM; 4: > 10 µM; 5: > 9.1 µM; 6: 0.94 µM; 7: > 10 µM; 8: > 9.1 µM

These measurements were taken from patent US10004732B2.
